The following sequences are shown together with reported apparent KD of MS2 coat protein values.
Test system: MS2 coat protein
Assay: apparent KD of MS2 coat protein; designed switch direction (-1 OFF switch, 1 ON switch): -1; higher = weaker reporter binding
Conditions: input ligand: none
READOUT: apparent KD of MS2 coat protein

sequence="AUCGUGCAGCUUUGCUGUACGAGUACAUGAGGAUCACCCAUGUAGGAUAUGGUACGCUUUGCGUGCUAGAAGGAUAUGUGUUUG [EX ENG3 1.44] (Eterna round: R96, puzzle: Exclusion NG 3)" test_result="43.4 nM"
sequence="AAUGAUUGACGAGGAUAUUGUGGUAGAUCACGACGAGAAGGCGUAUGUCACAUGAGGAUCACCCAUGUGAGCUUUGUGGAUAGA [Ex NG1 #74] (Eterna round: R96, puzzle: Exclusion NG 1)" test_result="20.7 nM"
sequence="CUGCUCCGUGUAGGAUAUGCGCGCAACCAACGCGCAGAAGGACAUGAGGAUCACCCAUGUAUGUUAUUAUCACGUGAGGCGCAA [Design 32] (Eterna round: R96, puzzle: Exclusion NG 1)" test_result="18.5 nM"
sequence="CCGGAACAUGAGGAUCACCCAUGUCAGGAUAUCUCAAAAUCGUCGAUAGACGAUAACAAGAGAAGGGACACCGG [Mat - Exclusion 1 - Eli Mod - D29] (Eterna round: R97, puzzle: Exclusion 1)" test_result="20.8 nM"
sequence="UUUAAUCAUGUAGGAUAUGCGUGGCGAAGCUAUGCAGAAGGACAUGAGGAUCACCCAUGUUCUAGCGUCUGCGUACAGAUGCGG [13th something] (Eterna round: R96, puzzle: Exclusion NG 1)" test_result="39.9 nM"
sequence="ACUAAAUAAACAAGCAAUAAUCCAUCGUCUUAUACUAAAACAUGAGGAUCACCCAUGUAACAGGUGGUGUUAAAUAA [JR_Sensorv2_tov2_Sub1202] (Eterna round: R96, puzzle: Sensor v2, turn-off variant 2)" test_result="19.1 nM"
sequence="AUUAGUAAUAAGGAUAUCACUAGCUGCGGCUAGUGAGAAGGUAUUACAUGAGGAUCACCCAUGUGAUCAAUUAA [E6/3-A3] (Eterna round: R97, puzzle: Exclusion 6)" test_result="476 nM"
sequence="AAGUCCGAGCGAGGAUAUUCACCUCAGUCAGCUGAAGAAGGCGCUAAGCGGUGAUUAUUUUGUACAUGAGGAUCACCCAUGUCA [Eternabot solution 49] (Eterna round: R96, puzzle: Exclusion NG 1)" test_result="22.6 nM"
sequence="ACGAUGACAGAAAGAAGUCAAAAGACAUGAGGAUCACCCAUGUAGGAUAUGGCUACGAAAAGUAGUCAGAAGGACAUGUCAUCA [Omei Exc(NG) 3 Av3] (Eterna round: R96, puzzle: Exclusion NG 3)" test_result="16.8 nM"
